Target: T1, human ceruloplasmin (human, UniProt P00450 20-1065)
T1 construct: also called CP; purified CP
T1 sequence: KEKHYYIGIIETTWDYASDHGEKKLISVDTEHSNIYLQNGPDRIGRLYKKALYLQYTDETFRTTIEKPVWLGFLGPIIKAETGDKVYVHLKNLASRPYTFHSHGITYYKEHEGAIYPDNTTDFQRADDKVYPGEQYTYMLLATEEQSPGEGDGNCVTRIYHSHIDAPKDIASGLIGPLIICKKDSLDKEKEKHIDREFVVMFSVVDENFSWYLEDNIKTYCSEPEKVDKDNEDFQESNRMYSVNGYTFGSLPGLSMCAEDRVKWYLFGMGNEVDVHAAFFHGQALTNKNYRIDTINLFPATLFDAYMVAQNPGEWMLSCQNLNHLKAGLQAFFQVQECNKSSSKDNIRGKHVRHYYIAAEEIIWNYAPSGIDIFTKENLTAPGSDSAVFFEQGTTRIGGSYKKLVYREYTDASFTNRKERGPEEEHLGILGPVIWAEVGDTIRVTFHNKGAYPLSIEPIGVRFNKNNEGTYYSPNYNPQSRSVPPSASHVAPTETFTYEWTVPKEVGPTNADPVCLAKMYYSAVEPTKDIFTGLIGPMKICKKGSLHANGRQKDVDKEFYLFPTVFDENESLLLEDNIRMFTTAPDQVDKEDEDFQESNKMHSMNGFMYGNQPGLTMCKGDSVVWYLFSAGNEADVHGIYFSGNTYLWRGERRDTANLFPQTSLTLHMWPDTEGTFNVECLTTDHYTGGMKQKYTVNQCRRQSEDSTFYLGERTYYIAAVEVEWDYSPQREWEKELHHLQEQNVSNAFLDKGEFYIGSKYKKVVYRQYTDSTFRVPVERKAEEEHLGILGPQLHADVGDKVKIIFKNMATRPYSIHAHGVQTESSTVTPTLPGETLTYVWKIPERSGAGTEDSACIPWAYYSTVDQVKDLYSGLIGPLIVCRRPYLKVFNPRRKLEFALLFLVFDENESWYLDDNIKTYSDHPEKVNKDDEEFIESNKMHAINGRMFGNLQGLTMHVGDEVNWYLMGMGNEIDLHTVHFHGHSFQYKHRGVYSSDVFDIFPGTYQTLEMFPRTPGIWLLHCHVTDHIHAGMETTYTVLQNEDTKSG
Assay: capture ELISA: mAb (CM, 50 ng/mL) on anti-rabbit IgG-Fc; 20 ng/mL purified human CP
Observed property: A450 (A450)
Numbers only here, please. The scale is A450.

Binder	Observed property	Scale unit	Reading
anti-CP mAb B (antibody, V domains shown, Recombinant full-length rabbit IgG from HEK-293; tested as conditioned medium, Protein A-purified and biotinylated) VH: QQQLEESGGGLVKPGGTLTLTCKASGIDFSSYYYMCWVRQAPGKGLEWIACIYVIDDTIYCANWAKGRFTISKTSSTTVTLQMTSLTAADTATYFCARDGSSGIRDYFDLWGPGTLVTVSS VL: AYDMTQTPASVEVAVGGTVTIKCQASESVSTWLAWYQQKPGQPPKLLIYKASDLASGVPSRFKGSGSGTEFTLTISGVECADAATYYCQQGYTYNNVENVFGGGTEVVVKG	A450	A450	1.02
anti-CP mAb D (antibody, V domains shown, Recombinant full-length rabbit IgG from HEK-293; tested as conditioned medium, Protein A-purified and biotinylated) VH: QEQLVESGGGLVQPEGSLTLTCKASGFDFSSYWMCWVRQAPGKRPEWIACIYGGDGTSYFAGWAKGRFTISKTSSTTVTLQMTSLTAADTATYFCARADYYVYVDGGYGHAYDLWGPGTLVTVSS VL: DIVMTQTPASVEAAVGGSVTIKCQASDDIYSYLAWYQQKPGQPPKLLIFDASSLPSGVPSRFKGSGSGTQFTLTISGVQCADAATYYCQNYYGSSSSVHAFGGGTEVVVKG	A450	A450	1.03

Here's the next entry for you.
Consider anti-CP mAb A (antibody, V domains shown, Recombinant full-length rabbit IgG from HEK-293; tested as conditioned medium, Protein A-purified and biotinylated) VH: QSLEESGGDLVKPGASLTLTCKASGFDLSRFYYMCWVRQAPGKGLEWIACIYAGRTGNTYYASWAKGRFTISKTSSTTVTLQMTSLTAADTATYFCARASGDFLAYTYAMDLWGPGTLVTVSS VL: AAVLTQTPASVSAAVGGTVTISCQASQSVDNNNYLAWYQQKPGQPPKLLIYEASKLASGVPSRFSGSGSGTQFTLTISDVQCDDATTYYCAGGYSSSADANAFGGGTEVVVKG . Its measured A450 is 1.09
